System: rice plants comprising the TaQ8GTC0 gene introduced therein
Assay notes: Herbicide resistance test of rice plants comprising the TaQ8GTC0 gene, gellan gum medium, plant height
Type: in vivo
Stated conditions: Oryza sativa, lineage #3-13; read-out: I50
Quantity kind: IC50
Hey, just the number and the unit after it is fine.

Query IC50 on rice plants comprising the TaQ8GTC0 gene introduced therein for Cn1nc(C(F)(F)F)c(CS(=O)(=O)C2=NOC(C)(C)C2)c1OC(F)F [Pyroxasulfone]
13.8 µM
